Target: Asu-ACR-16 receptor (Ascaris suum, UniProt F1KYJ9)
Sequence (F1KYJ9 1-504): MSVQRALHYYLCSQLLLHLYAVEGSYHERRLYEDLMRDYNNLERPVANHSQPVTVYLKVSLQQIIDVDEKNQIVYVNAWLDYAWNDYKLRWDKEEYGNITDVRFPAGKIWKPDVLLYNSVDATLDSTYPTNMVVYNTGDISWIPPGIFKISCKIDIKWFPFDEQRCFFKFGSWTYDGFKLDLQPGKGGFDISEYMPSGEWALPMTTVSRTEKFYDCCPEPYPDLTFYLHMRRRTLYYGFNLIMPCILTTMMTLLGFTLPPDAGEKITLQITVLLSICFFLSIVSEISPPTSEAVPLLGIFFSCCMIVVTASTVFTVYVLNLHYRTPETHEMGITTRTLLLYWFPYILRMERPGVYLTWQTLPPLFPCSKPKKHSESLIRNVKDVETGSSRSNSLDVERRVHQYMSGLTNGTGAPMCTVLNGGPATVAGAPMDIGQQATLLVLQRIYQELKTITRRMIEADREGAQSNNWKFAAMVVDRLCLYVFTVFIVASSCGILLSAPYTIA
Test: Two-electrode voltage clamp of Asu-ACR-16 expressed in Xenopus oocytes
Assay type: cell-based
Conditions: Asu-ACR-16 in Xenopus oocytes, Hill equation fit, mean ± S.E.M., N = 5
Structures can show the parent of a compound that is named as a salt.
READOUT KIND: Hill slope (nH)
Simply state the number, no unit and no words.

CN1CCC[C@H]1c1cccnc1 [(S)-nicotine, (−)-nicotine hydrogen tartrate salt] : 3.39
C#Cc1cncc([C@@H]2CCCN2C)c1 [(S)—SIB 1508Y] : 0.94

Prompt: Returns the measured Hill slope (nH) for the input compound. Input: CN1CCC[C@H]1c1cncc(Br)c1 [(S)-5-bromonicotine]
Completion: 2.46

Prompt: For CN1CCCC1c1ccc(N)nc1.Cl.Cl (stereo not drawn) , what is its reported Hill slope (nH)?
Completion: 10.10

Prompt: Requested read-out: Hill slope (nH). Entry: Cc1cncc(C2CCCN2C)c1 (racemic)
Completion: 2.09

Prompt: So what's the measured Hill slope (nH) for this one? "CC(=O)OCC[N+](C)(C)C"
Completion: 2.93

Each recorded value in this set is attributed to paper PMC5196235.
